Taken from patent US20110293610A1.

- Tgt: T1, Fas ligand (human, UniProt P48023 134-281, limits assumed)
- T1 sequence (looked up): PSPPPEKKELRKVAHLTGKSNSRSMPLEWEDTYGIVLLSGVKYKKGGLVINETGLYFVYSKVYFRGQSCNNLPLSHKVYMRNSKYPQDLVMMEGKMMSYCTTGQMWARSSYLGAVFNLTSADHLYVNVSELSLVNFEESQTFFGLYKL
- Protocol: phage ELISA
Readout kind: binding result

Binder	Readout kind	Measurement
I028A06 (scFv) scFv: QVQLVESGGGLIQPGGSLRLSCAASGFSFGSYAMSWIRQAPGKGLEWVSTSTGRGGSTYYADSVKGRFTISRDNAKNSLYLQMNSLRAEDAAVYYCARGGDYDILTGLYYYGMDVWGKGTMVTVSSGGGGSGGGGSGGGGSSYVLTQPPSVSGTPGQRVTISCSGGRSNIGSNTVKWYQQLPGTAPKLLIYGNDQRPSGVPDRFSGSKSGTSASLAITGVQAEDEADYYCQSYDSSLRGSRVFGTGTKVTVLG	binding result	no binding
I031G08 (scFv) scFv: QVQLVQSGAEVKKPGSSVKVSCRASGGSFIDDSINWLRQAPGQGLEWVGGTIPLANRANYAQKFRDRATITADELTATVFLELTSLRSDDTALYYCARSSPPKWYDALTGHSSYHSAMDVWGRGTLVTVSSGGGGSGGGGSGGGGSAQSVLTQPPSASGTPGQRVTISCSGTNSNIGGNTVNWYQQLPGTAPRLLIYSNNQRPSGVPDRFSGSKSGTSASLAISGLQSEDEADYYCAARDDRLNAHVVFGGGTKVTVLG	binding result	no binding
I018C02 (scFv) scFv: QVQLQQSGSELKKPGASVIVSCKVSGYSLTKMSMHWVRQSPGEGLEWVGGIDPETRQPVYAQKFQGRVTITKDTSASAAYMELSSLGSEDTALYYCARATYDPLTGYSFDGFDIWGQGTLVTVSSGGGGSGGGGSGGGGSQSVLTQPASVSGSPGQSITISCTGTSSDVGGYNYVSWYQQHPGKAPKLMIYEGSKRPSGVSNRFSGSKSGNTASLTISGLQAEDEADYYCSSYTTRSTRVFGGGTKLTVLG	binding result	no binding
